Would you kindly list cytotoxicity at 70.5 h for each of these compounds?
# Protocol Notes: Human HepG2 cell viability assay in 384 well format
# Assay type: toxicity, cell-based
# Parameters: dose 125 nL, time 70.5 hour; concentration not given beside the values
# Applied Conditions: HepG2 cells, read-out: Inhibition
Give bare numbers, in %.

Solved cases below.
Compound: NC(=O)c1cnc(NC(=O)CCc2ccco2)c(Cl)c1
cytotoxicity at 70.5 h, %: -2.14
//
Compound: Cc1ccc(Cl)cc1N1CCC(CNC(=O)CCn2ccnn2)C1 (stereo not drawn)
cytotoxicity at 70.5 h, %: -6.67
//
Compound: CCn1c(C2CCNCC2)nn(CCn2ccc(C)n2)c1=O
cytotoxicity at 70.5 h, %: -21.2
//
Compound: Cc1cc(NCc2cc3n(n2)CCCN(S(C)(=O)=O)C3)ncn1
cytotoxicity at 70.5 h, %: -5.23
//
Compound: O=C1CC2(CCCCC2)CC(=O)N1CC(O)COCc1ccc(Cl)cc1 (stereo not drawn)
cytotoxicity at 70.5 h, %: -6.34
//
Compound: Cc1ccc(CNCC2Cn3nnc(-c4cnn(C)c4)c3CO2)o1 (stereo not drawn)
cytotoxicity at 70.5 h, %: 15.6
//
Compound: CN(Cc1ccco1)C(=O)Nc1cccnc1N1CCCC1
cytotoxicity at 70.5 h, %: -3.81
//
Compound: COc1ccc(S(=O)(=O)NCC(C)(O)c2cccs2)cc1Cl (stereo not drawn)
cytotoxicity at 70.5 h, %: -10.5

I would be grateful if you could provide cytotoxicity at 70.5 h for each of the following entries.
1. CC(=O)Nc1ccc(-n2cncn2)c(F)c1
2. CN1CCN(C2CCN(CCOc3ccc(Cl)cc3)CC2)C1=O
3. O=C(O)CC1COCCN1C(=O)C1(c2ccc(Cl)cc2)CCC1 (stereo not drawn)
4. Cc1ccccc1C(O)c1ccncc1 (stereo not drawn)
5. Cn1nc(CN2CCCCC2)c2c1CN(C(=O)c1ccccc1)C2

1. -2.56
2. -6.64
3. 5.66
4. -8.85
5. 23.3

* * *

Would you kindly list cytotoxicity at 70.5 h for each of these compounds?
# Protocol Notes: Human HepG2 cell viability assay in 384 well format
# Format: toxicity, cell-based
# Set-up: dose 125 nL, time 70.5 hour; concentration not given beside the values
# Applied Conditions: HepG2 cells, read-out: Inhibition
One number for each entry, in %.

Solved cases below.
Compound: Cc1cccc(CN2CC3(CCN(C(=O)N(C)C)CC3)OCC2=O)n1
Measured Number: -0.965
--
Compound: CN(CCN1CCOCC1)C(=O)CCCOCCc1ccccc1
Measured Number: 13.1
--
Compound: COCC(=O)NCC1CCN(Cc2ccsc2)CC1
Measured Number: 33.7
--
Compound: CCc1c(C)nc2n(c1=O)CC(C(=O)Nc1ccccc1F)CS2 (configuration not stated)
Measured Number: 20.5
--
Compound: CCn1cc(N)c(-c2nnc3n2CCC3)n1
Measured Number: 13.1

I would be grateful if you could provide cytotoxicity at 70.5 h for each of the following entries.
1. COCCc1noc(CN2CC(C)(c3ccccc3)CCC2=O)n1 (configuration not stated)
2. CNC(=O)[C@@H]1[C@H]2CNCCN2C[C@H]1c1ccccc1

-9.17
-6.11

I would be grateful if you could provide cytotoxicity at 70.5 h for each of the following entries.
1. Cc1nn(C)c(N2CCOCC2)c1CNC1CCOc2ccccc21 (configuration not stated)
2. CC(=O)N1CCS(=O)(=O)[C@@H]2CCN(S(=O)(=O)CC(C)C)CC[C@@H]21
3. CNCc1cn(C2CCN(CCC(C)c3ccccc3)CC2)nn1 (configuration not stated)
4. O=S(=O)(CCN1CCCC1Cn1cncn1)c1ccccc1 (configuration not stated)

-3.07
-6.44
21.7
-1.96

cytotoxicity at 70.5 h reported for this compound Cc1ncc2c(n1)CN(CC(=O)Nc1nncs1)CC2 : -6.76
